System: J774.A1
EXPERIMENTAL DETAILS: Anti-inflammatory activity against mouse J774.A1 cells assessed as inhibition of LPS-induced IL-6 production preincubated for 30 mins followed by LPS stimulation for 24 hrs by ELISA
Assay type: functional, cell-based
REPORTED METRIC: pIC50
Schema: pIC50 number; meaning minus log10 of the concentration expressed in molar units.

[in] Fill in: pIC50 of O=C(/C=C/c1ccccc1)Nc1nc2ccccc2s1 is ___
[out] 5.97
